Provide the reported pKd of each item.
Target: T1, recombinant human Vascular Adhesion Protein-1 (rhVAP-1), purified from CHO cells (human, UniProt Q16853 1-763, limits assumed)
T1 construct: also called recombinant human VAP-1
T1 sequence (looked up): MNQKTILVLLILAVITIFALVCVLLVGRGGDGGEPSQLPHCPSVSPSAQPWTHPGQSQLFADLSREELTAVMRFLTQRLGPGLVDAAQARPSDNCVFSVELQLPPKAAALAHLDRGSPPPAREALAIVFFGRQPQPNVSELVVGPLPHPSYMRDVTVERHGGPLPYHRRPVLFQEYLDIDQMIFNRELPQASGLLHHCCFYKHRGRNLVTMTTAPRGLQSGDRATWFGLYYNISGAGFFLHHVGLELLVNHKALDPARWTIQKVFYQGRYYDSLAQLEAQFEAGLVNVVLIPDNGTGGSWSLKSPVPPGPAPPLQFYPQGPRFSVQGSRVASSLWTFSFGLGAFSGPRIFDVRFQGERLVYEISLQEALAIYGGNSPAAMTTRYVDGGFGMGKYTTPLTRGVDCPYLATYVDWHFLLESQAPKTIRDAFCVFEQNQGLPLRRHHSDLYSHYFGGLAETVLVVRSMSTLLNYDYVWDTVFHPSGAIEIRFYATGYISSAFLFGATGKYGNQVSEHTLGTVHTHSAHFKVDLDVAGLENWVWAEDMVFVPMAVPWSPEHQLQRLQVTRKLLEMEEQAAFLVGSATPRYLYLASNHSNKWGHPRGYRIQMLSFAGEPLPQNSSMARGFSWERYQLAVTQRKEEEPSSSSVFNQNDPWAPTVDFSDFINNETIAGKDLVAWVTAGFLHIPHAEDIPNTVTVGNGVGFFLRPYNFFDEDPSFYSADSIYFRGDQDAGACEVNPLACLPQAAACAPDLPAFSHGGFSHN
Assay: time-resolved immunofluorometric assay, plate coated with rhVAP-1, europium-conjugated anti-human antibody detection
pKd here: minus log base 10 of the concentration, concentration in moles per litre.

Entry fully human anti-VAP-1 monoclonal antibody 8A4 (hybridoma-derived) (antibody, human IgG1, V domains shown) VH: EVQLVESGGGLVQPGGSLRLSCAASGFIFSNYWMSWVRQAPGKGLEWVANIKQDGSEKYYVDSVRGRFTVSRDNAKNSLYLQMNSLRAEDTAVYYCARDYFGSGTYFFYFDYWGQGTLVTFSS VL: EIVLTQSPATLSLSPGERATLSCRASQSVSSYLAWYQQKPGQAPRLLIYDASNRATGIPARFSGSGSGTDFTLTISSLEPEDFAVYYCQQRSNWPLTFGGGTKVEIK needs its pKd filled in; supply it.
9.55

Entry fully human anti-VAP-1 monoclonal antibody 8C10 (hybridoma-derived) (antibody, human IgG1, V domains shown) VH: QVQLVESGGGVVQPGRSLRLSCAASGFTFFSYAMHWVRQTPGKGLEWVAVIWFDGSNENYVDSVKGRFTISRDNSKNTLYLQMNTLRAEDTAVYYCARDAWSYFDYWGQGTLVTVSS VL: VIQLTQSPSSLSASVGDRVTITCRASQGISRALAWYQQKPGKGPKLLIYDASSLESGVPSRFSGSGSGTDFTLTISSLQPEDFATYYCQQFNSYPLTFGGGTKVEIK needs its pKd filled in; supply it.
9.68

Entry fully human anti-VAP-1 monoclonal antibody 5F12 (hybridoma-derived) (antibody, V domains shown) VH: QVQLVDSGGDVVQPGRSLRLSCAASGFSFSRSGIHWVRQAPGKGLEWVAVIWYDGIYKYYADSVKGRFTISRDNSKNTLYLQMNSLRAEDTAVYYCAREKNWGIDYWGQGTLVTVSS VL: DIQMTQSPSSLSASVGDRVTITCRASQGISSWLAWYQQKPEKAPKSLIYGASSLQSGVPSRFSGSGSGTDFTLTISSLQPEDFATYYCQQYNSYPRTFGQGTKVEIK needs its pKd filled in; supply it.
9.19

Entry fully human anti-VAP-1 monoclonal antibody 3F10 (hybridoma-derived) (antibody, human IgG1, V domains shown) VH: QVQLVESGGGVVQPGRSLRLSCAASGFTFSSYAMHWVRQAPGKGLEWVAVLWFDGSNEDYADSVKGRFTISRDNSKNTLYLQMNSLRAEDTAVYYCARDGWGYFDYWGQGTLVTVSS VL: AIQLTQSPSSLSASVGDRVTITCRASQGISRALAWYQQKPGKAPKLLIYDASNLERGVPSRFSGSGSGTDFTLTISSLQPEDFATYYCQQFNSFPLTFGGGTKVEIK needs its pKd filled in; supply it.
9.60

Origin of the recorded values: patent US20110117021A1
